# Tested on: biotinyl-Val-oxazolone
# assay.details: self-aminoacylation, catalytic enhancement (BVO) (fold over background); higher = more active; k-Seq, kA / k0A0; sequences stand for … in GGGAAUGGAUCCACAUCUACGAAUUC…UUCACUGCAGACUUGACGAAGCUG
This sample holds only a part of the variants without activity.
measured.property: self-aminoacylation
Write the number on its own, no unit after it.

Answered examples (10):
# seq.string, target.desc, value.observed
data = [
    ("CCGCACUGCAAGCAAUCGGUC [Fam1B.1 aminoacylation ribozyme variant]", "biotinyl-Val-oxazolone", 1.81),
    ("AUUACCCUGGUCAUCCAAUGA [Fam2.1 aminoacylation ribozyme variant]", "biotinyl-Val-oxazolone", 0.942),
    ("CCACACUUCCAGCAGUCGGUC [Fam1B.1 aminoacylation ribozyme variant]", "biotinyl-Val-oxazolone", 1.29),
    ("CCAUACAUCAAGCAAUCGGUC [Fam1B.1 aminoacylation ribozyme variant]", "biotinyl-Val-oxazolone", 0.981),
    ("AUGCACCUAGGGCAUCGGGUG [Fam2.2 aminoacylation ribozyme variant]", "biotinyl-Val-oxazolone", 3.46),
    ("AUUCACCUAGGUUAACGGGUG [Fam2.2 aminoacylation ribozyme variant]", "biotinyl-Val-oxazolone", 2.1),
    ("UUUCACCUGGGUCAUCGGGUG [Fam2.2 aminoacylation ribozyme variant]", "biotinyl-Val-oxazolone", 5.26),
    ("AAAUUUGCCAAUAGUCGCAAG [Fam3.1 aminoacylation ribozyme variant]", "biotinyl-Val-oxazolone", 1.65),
    ("AGUAUCCUGGUCAUCGAGUGA [Fam2.1 aminoacylation ribozyme variant]", "biotinyl-Val-oxazolone", 4),
    ("AUUGCCCUGGUCCUCGAGUGA [Fam2.1 aminoacylation ribozyme variant]", "biotinyl-Val-oxazolone", 2.05),
]

Qu. Entry under review: AUUCACCUAGGUCCUCGGGCG [Fam2.2 aminoacylation ribozyme variant] . Reported self-aminoacylation?
Ans. 2.7

Qu. Entry under review: AUUAAACUAGGUCAUCGGGUG [Fam2.2 aminoacylation ribozyme variant] . Reported self-aminoacylation?
Ans. 3.11

Qu. Entry under review: CGACUUCAAACAAUCAGUCUG [Fam1A.1 aminoacylation ribozyme variant] . Reported self-aminoacylation?
Ans. 0.893

----------
# Tested on: biotinyl-Ile-oxazolone
# assay.details: self-aminoacylation, catalytic enhancement (BIO) (fold over background); higher = more active; k-Seq, kA / k0A0; sequences stand for … in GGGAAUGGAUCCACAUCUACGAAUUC…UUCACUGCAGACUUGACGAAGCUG
Fewer inactive variants are shown than the library holds.
measured.property: self-aminoacylation

# seq.string, value.observed
records = [
    ("AUUCCCCUAGGUCAUCGGGCG [Fam2.2 aminoacylation ribozyme variant]", 9.9),
]

Qu. Entry under review: UUUCACCUAGGUCAUUGGGUG [Fam2.2 aminoacylation ribozyme variant] . Reported self-aminoacylation?
Ans. 2.59

Qu. Entry under review: CCACACUUCAAGCAAUGGGUU [Fam1B.1 aminoacylation ribozyme variant] . Reported self-aminoacylation?
Ans. 1.22

Qu. Entry under review: CUACUUCAACCAAUCAGUCUG [Fam1A.1 aminoacylation ribozyme variant] . Reported self-aminoacylation?
Ans. 0.747

Qu. Entry under review: AUCCACCUAGGUCAUCGGGCG [Fam2.2 aminoacylation ribozyme variant] . Reported self-aminoacylation?
Ans. 4.91

Qu. Entry under review: AUUCGCCUAGGUCAUCGGGUG [Fam2.2 aminoacylation ribozyme variant] . Reported self-aminoacylation?
Ans. 26.2

----------
# Tested on: biotinyl-Trp-oxazolone
# assay.details: self-aminoacylation, catalytic enhancement (BWO) (fold over background); higher = more active; k-Seq, kA / k0A0; sequences stand for … in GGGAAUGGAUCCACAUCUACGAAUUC…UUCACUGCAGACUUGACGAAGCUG
Fewer inactive variants are shown than the library holds.
measured.property: self-aminoacylation

# seq.string, self-aminoacylation
measured = [
    ("AACUUUGCUAAUAGUCGCACG [Fam3.1 aminoacylation ribozyme variant]", 3.12),
    ("AAGUUGGAUAAUAGUCGCAAG [Fam3.1 aminoacylation ribozyme variant]", 1.12),
    ("CUACUUAAACCAAUCGGUCUG [Fam1A.1 aminoacylation ribozyme variant]", 0.473),
    ("AUUACCCUGGUCAUCGAGAUA [Fam2.1 aminoacylation ribozyme variant]", 3.19),
    ("AUUACCCUGGUCUUCCAGUGA [Fam2.1 aminoacylation ribozyme variant]", 6.46),
]

Let us move to another entry and its self-aminoacylation.
Qu. Entry under review: CUACUUCAAACAAUCGUUCGG [Fam1A.1 aminoacylation ribozyme variant] . Reported self-aminoacylation?
Ans. 0.473

----------
# Test system: biotinyl-Trp-oxazolone
# assay.details: self-aminoacylation, catalytic enhancement (BWO) (fold over background); higher = more active; k-Seq, kA / k0A0; sequences stand for … in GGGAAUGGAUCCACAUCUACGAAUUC…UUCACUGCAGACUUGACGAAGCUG
Variants at the floor of the assay were thinned out.
measured.property: self-aminoacylation
Write the number on its own, no unit after it.

Answered examples (2):
# seq.string, measured.property, value.observed
data = [
    ("AAGUUUGCUAAUUGUAGCAAG [Fam3.1 aminoacylation ribozyme variant]", "self-aminoacylation", 1.02),
    ("AUACACUUCAAGCAAUCGGUC [Fam1B.1 aminoacylation ribozyme variant]", "self-aminoacylation", 5.86),
]

Qu. Query the reported self-aminoacylation for biotinyl-Trp-oxazolone; item: GAGUUUGCUAACAGUCGCAAG [Fam3.1 aminoacylation ribozyme variant]
Ans. 5.6

Qu. Query the reported self-aminoacylation for biotinyl-Trp-oxazolone; item: CUACUUCGAACAAUCGGUGUG [Fam1A.1 aminoacylation ribozyme variant]
Ans. 1.25

Qu. Query the reported self-aminoacylation for biotinyl-Trp-oxazolone; item: GUUCACCUAGGUCAUCGGGUA [Fam2.2 aminoacylation ribozyme variant]
Ans. 33.1

----------
# System: biotinyl-Leu-oxazolone
# assay.details: self-aminoacylation, catalytic enhancement (BLO) (fold over background); higher = more active; k-Seq, kA / k0A0; sequences stand for … in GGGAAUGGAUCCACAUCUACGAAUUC…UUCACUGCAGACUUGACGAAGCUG
Fewer inactive variants are shown than the library holds.
Threshold rule: self-aminoacylation greater than or equal to 1 is Yes; below that, No.

Record excerpt, results attached:
# seq.string, target.desc, class.name
records = [
    ("AUUCACCUAGGUCAUCUCGUG [Fam2.2 aminoacylation ribozyme variant]", "biotinyl-Leu-oxazolone", "Yes"),
    ("AUUGACCUAGGUCAGCGGGUG [Fam2.2 aminoacylation ribozyme variant]", "biotinyl-Leu-oxazolone", "Yes"),
    ("CUACUGCUAACAAUCGGUCUG [Fam1A.1 aminoacylation ribozyme variant]", "biotinyl-Leu-oxazolone", "No"),
    ("AAGUUAGCUAAUAGUCUCAAG [Fam3.1 aminoacylation ribozyme variant]", "biotinyl-Leu-oxazolone", "No"),
    ("AAGUUUGCUAAUCGGCGCAAG [Fam3.1 aminoacylation ribozyme variant]", "biotinyl-Leu-oxazolone", "Yes"),
    ("AUUCACCUAGGUCAUAGCGUG [Fam2.2 aminoacylation ribozyme variant]", "biotinyl-Leu-oxazolone", "Yes"),
    ("CGACGUCAAACAAUCGGUCUG [Fam1A.1 aminoacylation ribozyme variant]", "biotinyl-Leu-oxazolone", "Yes"),
    ("AUUCACCAAGGUCAUCGCGUG [Fam2.2 aminoacylation ribozyme variant]", "biotinyl-Leu-oxazolone", "Yes"),
]

Qu. Textbook exercise: given the entry AUUACCUUGGUCAUCGAGUUA [Fam2.1 aminoacylation ribozyme variant] , state whether its self-aminoacylation is greater than or equal to 1.
Ans. No

Qu. Textbook exercise: given the entry AUUAAACUAGGUCAUCGGGUG [Fam2.2 aminoacylation ribozyme variant] , state whether its self-aminoacylation is greater than or equal to 1.
Ans. Yes

Qu. Textbook exercise: given the entry CUACUUCAAACAAUCGGUGGG [Fam1A.1 aminoacylation ribozyme variant] , state whether its self-aminoacylation is greater than or equal to 1.
Ans. No

Qu. Textbook exercise: given the entry CUACUUCAAACUAUCGGUCUU [Fam1A.1 aminoacylation ribozyme variant] , state whether its self-aminoacylation is greater than or equal to 1.
Ans. No

Qu. Textbook exercise: given the entry CUACAUUAAACAAUCGGUCUG [Fam1A.1 aminoacylation ribozyme variant] , state whether its self-aminoacylation is greater than or equal to 1.
Ans. No

Qu. Textbook exercise: given the entry CUUCUACAAACAAUCGGUCUG [Fam1A.1 aminoacylation ribozyme variant] , state whether its self-aminoacylation is greater than or equal to 1.
Ans. No

Qu. Textbook exercise: given the entry AGCUUUGCUAAUAGUCGCAAG [Fam3.1 aminoacylation ribozyme variant] , state whether its self-aminoacylation is greater than or equal to 1.
Ans. Yes

Qu. Textbook exercise: given the entry AUGCACCAAGGUCAUCGGGUG [Fam2.2 aminoacylation ribozyme variant] , state whether its self-aminoacylation is greater than or equal to 1.
Ans. Yes
